molecular target: human erythrocyte 20S proteasome (Homo sapiens); experiment: 20S proteasome inhibition assay (chymotrypsin-like activity, Suc-LLVY-AMC substrate)
Reported pIC50 by item:
# pIC50: negative log10 of molar concentration; output just the value

- Molecule: "C=C(C)[C@@H](O)[C@H](O)c1ccc2c(c1OC)C(=O)OCc1cc(C)cc(O)c1O2 [Compound 2, pestalotiollide B]"
  pIC50: 4.73

Exam item: Return pIC50 (reported value) for this molecule: CCC[C@@H](O)[C@H](O)C1CC(OC)=CC(=O)O1 (stereo partly shown) [Compound 9, LL-P880b]
Marked response: 5.05

Exam item: Return pIC50 (reported value) for this molecule: C=C(C)[C@@H](O)[C@@H](O)c1ccc2c(c1OC)C(=O)OCc1cc(C)cc(O)c1O2 [Compound 3, pestalotiollide A]
Marked response: 4.91

Exam item: Return pIC50 (reported value) for this molecule: COc1c(/C=C/C(C)(C)OC)ccc2c1C(=O)OCc1cc(C)cc(O)c1O2 [Compound 1, 3′-O-methyldehydroisopenicillide]
Marked response: 4.52

Exam item: Return pIC50 (reported value) for this molecule: COC1=CC(=O)OC(CO)C1 (stereo not shown)
Marked response: 4.69
